# assay-explanation: cells
# Assay type: functional
The source made the active and inactive calls.

>  <smiles-str>
O=C(COc1ccc(Nc2ccccc2)cc1)OCC(=O)N1CCCCC1

>  <IC50>
2.49 µM (active)

$$$$
>  <smiles-str>
O=C(NC(=S)NNC(=O)[C@H]1C[C@@H]1c1ccccc1)c1cccc(F)c1

>  <IC50>
18.8 µM (active)

$$$$
>  <smiles-str>
COc1ccc(-c2cc(=O)oc(-c3cccc(C)c3)n2)cc1

>  <IC50>
35.9 µM (active)

$$$$
>  <smiles-str>
Cc1nnc(N/N=C/c2ccc(-c3ccc(Br)cc3)o2)n1N

>  <IC50>
9.58 µM (active)

$$$$
>  <smiles-str>
CC(C)(C)c1ccc(OCCC(=O)OCC(=O)NC2CC2)cc1

>  <IC50>
48.5 µM (active)

$$$$
>  <smiles-str>
O=C(NCCCN1CCCC1)c1cc2c(Cl)nc3ccccc3c2s1

>  <IC50>
30.8 µM (active)

$$$$
>  <smiles-str>
Cc1ccccc1-n1nnc2c(=O)oc3ccccc3c21

>  <IC50>
1.13 µM (active)

$$$$

###

# assayed-system: UniProt P29990
# assay-explanation: flavivirus cap methylation enzyme inhibition – biochemical, confirmation dose response, primary screen (AID 588689)
# Assay type: functional
The source made the active and inactive calls.
Listed here are compounds together with their documented IC50.

>  <smiles-str>
O=C1C(=NO)CCc2ccccc21

>  <assayed-system>
UniProt P29990

>  <IC50>
88.6 µM (active)

$$$$
>  <smiles-str>
O=C(Nc1cc(C(=O)Nc2ccccc2C(=O)O)cc(C(=O)Nc2ccccc2C(=O)O)c1)c1ccccc1

>  <assayed-system>
UniProt P29990

>  <IC50>
12.7 µM (active)

$$$$
>  <smiles-str>
Cc1ccc(/C=C2\SC(=S)N(NS(=O)(=O)c3ccc(C)cc3)C2=O)cc1

>  <assayed-system>
UniProt P29990

>  <IC50>
25.9 µM (active)

$$$$
>  <smiles-str>
O=C(O)CSc1cc(NS(=O)(=O)c2ccc(Cl)cc2)c2ccccc2c1O

>  <assayed-system>
UniProt P29990

>  <IC50>
7.15 µM (active)

$$$$
>  <smiles-str>
Cc1ccc(SC2=C(N(C)C)C(=O)c3ccccc3C2=O)cc1

>  <assayed-system>
UniProt P29990

>  <IC50>
65 µM (active)

$$$$

###

# assayed-system: Small ubiquitin-related modifier 1 (Homo sapiens)
# Sequence (P63165 whole entry): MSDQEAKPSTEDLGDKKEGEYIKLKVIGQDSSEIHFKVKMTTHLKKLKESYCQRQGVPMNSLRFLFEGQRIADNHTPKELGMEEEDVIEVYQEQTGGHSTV
# assay-explanation: SUMO1 protein interaction blockers, potency – biochemical, fluorescence polarization, uHTS hits, dose response (AID 624382)
# Type: functional
# experimental-context: read-out: IC50_Mean
Activity calls are given as the source filed them.
Classes used: active, inactive

>  <smiles-str>
O=C(Nc1cc(C(=O)Nc2ccccc2C(=O)O)cc(C(=O)Nc2ccccc2C(=O)O)c1)c1ccccc1

>  <group-label>
active

$$$$
>  <smiles-str>
O=C(O)c1cccc(-c2ccc(/C=c3/sc4nc5ccccc5n4c3=O)o2)c1

>  <group-label>
inactive

$$$$
>  <smiles-str>
Cc1cc(C(=O)N/N=C/c2ccc(-c3ccc([N+](=O)[O-])cc3Cl)o2)[nH]n1

>  <group-label>
inactive

$$$$
>  <smiles-str>
Cc1ccc(NC(=O)CSc2nc3ccccc3c3nc(CCc4c(C)n[nH]c4C)nn23)cc1F

>  <group-label>
inactive

$$$$
>  <smiles-str>
Cc1cc(-c2cc(NC=O)c3ncc(-c4cccc(C(=O)NCCN(C)C)c4)n3c2)cc(C)c1O

>  <group-label>
inactive

$$$$
>  <smiles-str>
O=C(Nc1ccc(Nc2ccncc2)cc1)c1ccc(Nc2ccnc3ccc([N+](=O)[O-])cc23)cc1[N+](=O)[O-]

>  <group-label>
inactive

$$$$
